The measurements presented in this section are drawn from ChEMBL document CHEMBL1140314.

A short record of Ki observed with Cannabinoid receptor 1 (Rattus norvegicus, UniProt P20272) follows.
Sequence (P20272 whole entry): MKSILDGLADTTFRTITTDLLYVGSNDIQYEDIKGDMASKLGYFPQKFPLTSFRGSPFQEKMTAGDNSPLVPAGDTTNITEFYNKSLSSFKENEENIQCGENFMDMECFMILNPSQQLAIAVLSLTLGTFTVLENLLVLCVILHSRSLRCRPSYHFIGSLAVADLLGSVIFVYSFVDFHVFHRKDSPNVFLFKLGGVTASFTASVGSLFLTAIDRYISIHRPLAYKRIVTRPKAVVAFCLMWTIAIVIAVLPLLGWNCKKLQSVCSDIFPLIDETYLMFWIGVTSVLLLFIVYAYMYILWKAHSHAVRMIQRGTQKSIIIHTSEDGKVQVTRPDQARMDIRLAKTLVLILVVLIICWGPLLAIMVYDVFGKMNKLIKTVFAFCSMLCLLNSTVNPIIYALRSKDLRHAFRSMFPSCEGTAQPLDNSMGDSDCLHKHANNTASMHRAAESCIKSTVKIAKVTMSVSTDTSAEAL

Solved entries (count: 4):
{"columns": ["Molecule", "Result"],
 "data": [
  ["CC1=CC[C@@H]2[C@@H](C1)c1c(O)cc(C=C3C4CC5CC(C4)CC3C5)cc1OC2(C)C", "48.6 nM"],
  ["CC1=CC[C@@H]2[C@@H](C1)c1c(O)cc(CC3C4CC5CC(C4)CC3C5)cc1OC2(C)C (stereo not given in full)", "79.7 nM"],
  ["CC1=CC[C@@H]2[C@@H](C1)c1c(O)cc(CC34CC5CC(CC(C5)C3)C4)cc1OC2(C)C", "29.3 nM"],
  ["CC1=CC[C@@H]2[C@@H](C1)c1c(O)cc(C3C4CC5CC(C4)CC3C5)cc1OC2(C)C (stereo not given in full)", "34.9 nM"]
]}

Next:
Exercise: Which Ki is reported with Cannabinoid receptor 1 (Rattus norvegicus, UniProt P20272) for this entry: CC1=CC[C@@H]2[C@@H](C1)c1c(O)cc(C34CC5CC(CC(C5)C3)C4)cc1OC2(C)C ?
Solution: 6.8 nM

----------
Read-out record for Cannabinoid receptor 2 (Mus musculus, UniProt P47936): Ki
Report as a plain number; the unit nM is understood.

{"columns": ["Compound", "Units", "Ki"],
 "data": [
  ["CC1=CC[C@@H]2[C@@H](C1)c1c(O)cc(C34CC5CC(CC(C5)C3)C4)cc1OC2(C)C", "nM", 52],
  ["CC1=CC[C@@H]2[C@@H](C1)c1c(O)cc(CC3C4CC5CC(C4)CC3C5)cc1OC2(C)C (stereo not given in full)", "nM", 76],
  ["CC1=CC[C@@H]2[C@@H](C1)c1c(O)cc(C3C4CC5CC(C4)CC3C5)cc1OC2(C)C (stereo not given in full)", "nM", 14],
  ["CC1=CC[C@@H]2[C@@H](C1)c1c(O)cc(CC34CC5CC(CC(C5)C3)C4)cc1OC2(C)C", "nM", 26.9]
]}

Exercise: Which measured Ki belongs to CC1=CC[C@@H]2[C@@H](C1)c1c(O)cc(C=C3C4CC5CC(C4)CC3C5)cc1OC2(C)C , tested on Cannabinoid receptor 2 (Mus musculus, UniProt P47936)?
Solution: 8.9
